# literature pull: Coagulation factor X (Homo sapiens, UniProt P00742) Ki
Value expressed in nM; do not type the unit.

*Q* Provide value of Ki for this record tested with Coagulation factor X (Homo sapiens, UniProt P00742): CS(=O)(=O)c1ccccc1-c1ccc(NC(=O)c2cc(C(F)(F)F)nn2-c2ccccc2CCN)c(F)c1
*A* 110

*Q* Provide value of Ki for this record tested with Coagulation factor X (Homo sapiens, UniProt P00742): CC1CCCCN1CCCN(Cc1ccc2ccc(C(=N)N)cc2c1)C(=O)c1cccc2ccccc12 (stereo not drawn)
*A* 137

*Q* Provide value of Ki for this record tested with Coagulation factor X (Homo sapiens, UniProt P00742): CN(C)Cc1ccncc1-c1ccc(-c2ccc3c(C(N)=O)nn(-c4ccc5onc(N)c5c4)c3c2F)c(F)c1
*A* 147

----------
# literature pull: Coagulation factor X (Homo sapiens) Ki
Value expressed in nM; do not type the unit.

*Q* Fill in: Ki of CC(C)Oc1ccc(-c2cccc(S(=O)(=O)N[C@@H](Cc3cccc(C(=N)N)c3)C(=O)N3CCC(NC(=O)NC(C)(C)C)CC3)c2)cc1 is ___
*A* 439

*Q* Fill in: Ki of CCN(CC)CCN(C)Cc1csc(C(=O)Nc2ccc(Cl)cc2C(=O)Nc2ccc(Cl)cc2)c1Cl is ___
*A* 0.52

*Q* Fill in: Ki of CN(C)C(=O)c1cccc(Oc2nc(Oc3cc(C(=N)N)ccc3O)c(F)c(OC3CCN(CC(=O)O)CC3)c2F)c1 is ___
*A* 0.65

*Q* Fill in: Ki of COc1ccc(S(=O)(=O)NC2CCCN(c3ccc(-c4ccccc4S(C)(=O)=O)cc3F)C2=O)cc1 (stereo unspecified) is ___
*A* 53

----------
# literature pull: Coagulation factor X (Homo sapiens) pKi
pKi: −log10 of the molar value.

*Q* Fill in: pKi of CCOc1cc(C(Nc2ccc3cnccc3c2)C(=O)NS(=O)(=O)c2ccccc2S(N)(=O)=O)ccc1OC(C)C (stereo not drawn) is ___
*A* < 5.10

*Q* Fill in: pKi of COC(=O)[C@H](Cc1cccc(C(=N)N)c1)[C@@H](CCc1ccccc1)NC(=O)c1ccc(-c2ccccc2)cc1 is ___
*A* 7.68

*Q* Fill in: pKi of Cc1cc(OCCCONC(=N)N)cc(OS(=O)(=O)c2ccccc2S(C)(=O)=O)c1 is ___
*A* < 4.66

----------
# literature pull: Coagulation factor X (Homo sapiens, UniProt P00742) Ki

*Q* Provide value of Ki for this record tested with Coagulation factor X (Homo sapiens, UniProt P00742): O=C(CN1CCN(S(=O)(=O)c2cc3ccc(Cl)cc3s2)CC1=O)NCCCn1ccnc1
*A* > 1.2 µM

*Q* Provide value of Ki for this record tested with Coagulation factor X (Homo sapiens, UniProt P00742): CC(NC(=O)CNC(=O)Nc1ccc(C(=N)N)cc1)c1ccc(NC(=O)c2cccc(Oc3ccccc3)c2)cc1 (stereo not given)
*A* > 10 µM

*Q* Provide value of Ki for this record tested with Coagulation factor X (Homo sapiens, UniProt P00742): Cc1c(F)c(Oc2cccc(C(=N)N)c2)nc(Oc2cc(C(=O)N(C)C)cc(O)c2O)c1F
*A* > 5 µM

*Q* Provide value of Ki for this record tested with Coagulation factor X (Homo sapiens, UniProt P00742): O=C(Nc1cccc(COc2cccc(F)c2)c1)C1CCN(c2ccncc2)CC1
*A* > 250 µM

*Q* Provide value of Ki for this record tested with Coagulation factor X (Homo sapiens, UniProt P00742): O=C(Nc1cccc(OCc2cccc(Cl)c2)c1)C1CCN(c2ccncc2)CC1
*A* > 250 µM

*Q* Provide value of Ki for this record tested with Coagulation factor X (Homo sapiens, UniProt P00742): CC(C)(NC(=O)CNC(=O)Nc1ccc(C(=N)N)cc1)c1ccccc1
*A* > 10 µM

*Q* Provide value of Ki for this record tested with Coagulation factor X (Homo sapiens, UniProt P00742): Cc1c(F)c(NC2CCCCC2)nc(Oc2cccc(C(=N)N)c2)c1F
*A* > 5 µM

*Q* Provide value of Ki for this record tested with Coagulation factor X (Homo sapiens, UniProt P00742): O=C(Nc1ccccc1OCc1cccc(F)c1)C1CCN(c2ccncc2)CC1
*A* > 250 µM

*Q* Provide value of Ki for this record tested with Coagulation factor X (Homo sapiens, UniProt P00742): Cc1ncn(-c2cc(Cl)c(C(=O)NC[C@@H](c3cccc(F)c3)c3nc4c(F)ccc(C)c4c(=O)[nH]3)c(Cl)c2)n1
*A* > 28.9 µM

*Q* Provide value of Ki for this record tested with Coagulation factor X (Homo sapiens, UniProt P00742): COc1cc(C(=O)N(C)C)cc(Oc2nc(Oc3cccc(C(=N)N)c3)c(F)c(C)c2F)c1OC
*A* > 5 µM
